Test system: 276233-004-R-J1-PDC complex spheroid viability;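 note: spheroids exposed to drugs for seven days; 100% = DMSO vehicle control viability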
Experiment: Anticancer human tumor 276233-004-R-J1-PDC patient-derived colon adenocarcinoma cell line growth inhibition [GQUAD]
Conditions: second compound 0.0316 µM; first compound 0.1 µM; active compounds read low

compound: COc1cc(C2c3cc4c(cc3C(OC3OC5COC(C)OC5C(O)C3O)C3COC(=O)C23)OCO4)cc(OC)c1O (stereo unspecified) + Cc1[nH]c2ccc(F)cc2c1-c1nc2c3cccnc3c3ncccc3c2[nH]1
viability, T/C [%]: 82.7
//
compound: C#Cc1c(F)ccc2cc(O)cc(-c3ncc4c(N5CC6CCC(C5)N6)nc(OCC56CCCN5CC(F)C6)nc4c3F)c12 (stereo unspecified) + Cc1[nH]c2ccc(F)cc2c1-c1nc2c3cccnc3c3ncccc3c2[nH]1
viability, T/C [%]: 85.2
//
compound: CC1COCCN1c1cc(C2(O)CC3CCC(C2)O3)c2cnn(-c3ccn[nH]3)c2n1 (stereo unspecified) + Cc1cnc(CNC(=O)c2c(=O)c3ccc(N4CCCN(C)CC4)nc3n3c2sc2ccccc23)cn1
viability, T/C [%]: 61.9
//
compound: COc1ccc([C@@H](O)c2cc(-c3ncnc4cc(N5CCOCC5)ccc34)c(F)cc2Cl)nn1 + Cc1cnc(CNC(=O)c2c(=O)c3ccc(N4CCCN(C)CC4)nc3n3c2sc2ccccc23)cn1
viability, T/C [%]: 81.5
//
compound: CC1COCCN1c1cc(C2(S(C)(=N)=O)CC2)nc(-c2ccnc3[nH]ccc23)n1 (stereo unspecified) + Cc1cnc(CNC(=O)c2c(=O)c3ccc(N4CCCN(C)CC4)nc3n3c2sc2ccccc23)cn1
viability, T/C [%]: 72.1
//
compound: O=C(c1cc(Cc2n[nH]c(=O)c3ccccc23)ccc1F)N1CCN(C(=O)C2CC2)CC1 + Cc1[nH]c2ccc(F)cc2c1-c1nc2c3cccnc3c3ncccc3c2[nH]1
viability, T/C [%]: 95.4
//
compound: C=CC(=O)N1CCN(c2nc(=O)n(-c3c(C)ccnc3C(C)C)c3nc(-c4c(O)cccc4F)c(F)cc23)C(C)C1 (stereo unspecified) + Cc1cnc(CNC(=O)c2c(=O)c3ccc(N4CCCN(C)CC4)nc3n3c2sc2ccccc23)cn1
viability, T/C [%]: 75.1
//
compound: C=CCn1c(=O)c2cnc(Nc3ccc(N4CCN(C)CC4)cc3)nc2n1-c1cccc(C(C)(C)O)n1 + CN(C)c1ccc(Nc2c3ccc(NC(=O)CCN4CCCC4)cc3nc3cc(NC(=O)CCN4CCCC4)ccc23)cc1
viability, T/C [%]: 86.2
//
compound: Cc1cccc(N(C)C(=O)C2C(O)CCN2c2nc(C)cc(C(F)(F)F)c2C#N)c1 (stereo unspecified) + CN(C)c1ccc(Nc2c3ccc(NC(=O)CCN4CCCC4)cc3nc3cc(NC(=O)CCN4CCCC4)ccc23)cc1
viability, T/C [%]: 74.1
//
compound: C=CC(=O)N1CCN(c2nc(=O)n(-c3c(C)ccnc3C(C)C)c3nc(-c4c(O)cccc4F)c(F)cc23)C(C)C1 (stereo unspecified) + CN(C)c1ccc(Nc2c3ccc(NC(=O)CCN4CCCC4)cc3nc3cc(NC(=O)CCN4CCCC4)ccc23)cc1
viability, T/C [%]: 90.4
//
compound: O=c1[nH]cc(F)c(=O)[nH]1 + CN(C)c1ccc(Nc2c3ccc(NC(=O)CCN4CCCC4)cc3nc3cc(NC(=O)CCN4CCCC4)ccc23)cc1
viability, T/C [%]: 83.7
